assay_target: T1, Full length recombinant HBcAg (rHBcAg) encompassing residues 1-183 (hepatitis B virus, UniProt P03146 1-183)
T1 construct: range 1-183; also called hepatitis B virus core antigen
T1 sequence (P03146 whole entry, the tested form may be a part): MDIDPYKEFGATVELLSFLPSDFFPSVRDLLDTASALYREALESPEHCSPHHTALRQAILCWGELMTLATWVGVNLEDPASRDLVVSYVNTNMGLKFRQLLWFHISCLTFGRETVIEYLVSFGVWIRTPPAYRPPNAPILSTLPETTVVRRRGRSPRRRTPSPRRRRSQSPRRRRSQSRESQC
test_description: competition EIA, HBcAg coated 5 ug/ml, peptide 200 ug/ml together with mAb 4-2 (competitor); OD of bound mAb
Catalogue of binders with associated OD at 490 nm
The answer is to be given in OD; state only the numeric part.

// solved cases for OD at 490 nm follow
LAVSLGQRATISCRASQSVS [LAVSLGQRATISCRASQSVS (SEQ. ID. No. 16)] = 0.859
QQKPGQPPKLLIKYASNLES [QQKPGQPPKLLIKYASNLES (SEQ. ID. No. 19)] = 0.925
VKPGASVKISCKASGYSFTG (also called Peptide # 25) [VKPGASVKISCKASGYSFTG (SEQ. ID. No. 28)] = 0.302
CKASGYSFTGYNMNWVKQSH (also called Peptide # 26) [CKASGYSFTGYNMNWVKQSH (SEQ. ID. No. 29)] = 0.341

Returns the measured OD at 490 nm for the input binder. Input: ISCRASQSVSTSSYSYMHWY [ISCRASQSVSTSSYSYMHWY (SEQ. ID. No. 17)]
1.47

// repeat for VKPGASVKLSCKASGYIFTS (also called Peptide # 2; Pept. #2) [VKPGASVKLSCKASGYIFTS (SEQ. ID. No. 5)] and report
0.139
